B1: Osa-1-4 twister ribozyme (parent)
chain: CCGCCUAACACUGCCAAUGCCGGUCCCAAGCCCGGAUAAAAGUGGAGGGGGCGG

# Variants of: B1
# assay.info: self-cleavage, relative activity (ratio to wild type); higher = more cleavage; co-transcriptional
recorded.endpoint: self-cleavage
Form: value (number only, do not type unit).

Some variants with known self-cleavage results, for comparison:
variant.name: C20A C25U
self-cleavage: 0.78
--
variant.name: C25G G13C
self-cleavage: 0.01
--
variant.name: G23A U18G
self-cleavage: 0.38

// self-cleavage lookup, variant = C20G G44A , result: 0.08

// self-cleavage lookup, variant = G42U G53U , result: 0.08

// self-cleavage lookup, variant = C52U G42U , result: 0.13

// self-cleavage lookup, variant = G23U U18C , result: 0.1

// self-cleavage lookup, variant = G51A G53U , result: 0.17

// self-cleavage lookup, variant = A29G C15A , result: 0.06

// self-cleavage lookup, variant = A16G A46G , result: 0.1
